assayedTarget: T1, soluble human FcRn (shFcRn) (human, UniProt P55899 24-297; P61769 21-119)
T1 construct: Biotinylated for the ELISA, amine-coupled to a CM5 chip for SPR; also called biotinylated shFcRn
T1 sequence (P55899 24-297 limits assumed, chain 1 of 2): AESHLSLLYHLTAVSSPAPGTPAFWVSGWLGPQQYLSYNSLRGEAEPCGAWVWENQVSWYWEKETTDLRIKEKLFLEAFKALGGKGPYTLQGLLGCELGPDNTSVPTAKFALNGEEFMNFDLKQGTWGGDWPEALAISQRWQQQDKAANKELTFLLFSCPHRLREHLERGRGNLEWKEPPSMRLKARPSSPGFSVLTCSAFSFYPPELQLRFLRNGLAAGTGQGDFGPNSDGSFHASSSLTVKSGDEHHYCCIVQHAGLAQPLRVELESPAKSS
T1 sequence (P61769 21-119 limits assumed, chain 2 of 2): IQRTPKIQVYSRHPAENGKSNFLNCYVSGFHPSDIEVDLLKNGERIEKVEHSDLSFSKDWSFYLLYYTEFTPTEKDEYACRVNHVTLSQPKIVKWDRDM
procedureText: SPR pH 7.4; 4-PyridylAla in place of His
experimentalReadout: pKd
Keep in mind that pKd stands for -log10 of concentration in molar terms.

Asked: Which pKd reading was recorded for the binder RFCTGXFGGLYPC (Pen 3; 4-PyridylAla 6; Sar 9; NMeLeu 10; disulfide 3-13; C-terminal amide) [Peptide No. 268] ?
Given back: 6.55
